Target: Human thrombin (Homo sapiens (Human))
Experiment: Thrombin protease activity inhibition assay (chromogenic substrate S-2238)
Assay type: biochemical
Conditions: 3 nM thrombin, 125 μM S-2238, 10 min pre-incubation, RT
Method: The thrombin activity reported herein (e.g., Table A) was obtained as follows. […] Thrombin was assayed in buffer containing 0.05 M Tris (pH 7.4), 0.015 M NaCl and 0.01% PEG-8000. The final concentration of enzyme used was 3 nM thrombin. […] Inhibitor IC50 values were determined by adding test compound as ten point, three-fold serial dilutions in buffer solution, as known in the art. The plate was read at 10 minutes after substrate addition. […]
MEASURE: IC50

{"MOLECULE": "O=C(c1ccsc1)n1nc(-c2cccn(Cc3ccncc3)c2=O)cc1NCc1ccc(Cl)s1", "IC50": "< 0.1 µM"}
{"MOLECULE": "N#CCn1cccc(-c2cc(NCc3ccc(Cl)s3)[nH]n2)c1=O", "IC50": "10 to 100 µM"}
{"MOLECULE": "O=c1c(-c2cc(NCc3ccc(Cl)s3)[nH]n2)cccn1Cc1ccccc1", "IC50": "1 to 10 µM"}
{"MOLECULE": "CC(C)(C)C(=O)n1nc(-c2cccn(CC(=O)N3CCOCC3)c2=O)cc1NCc1ccc(Cl)s1", "IC50": "< 0.1 µM"}
{"MOLECULE": "CCOC(=O)Cn1cccc(-c2cc(NCc3ccc(Cl)s3)n[nH]2)c1=O", "IC50": "10 to 100 µM"}

Req: Which IC50 reading was recorded for the compound "O=C(c1ccoc1)n1nc(-c2cccn(Cc3cccs3)c2=O)cc1NCc1ccc(Cl)s1" ?
Resp: < 0.1 µM
